Test system: tumor cell lines
Quick reference: GI50 of the listed items.
Lab book: enter the figure in µM, no units written.

Example cases with answers are listed next.
COC(=O)[C@@H]1CC2=C(C(=O)c3cc4ccccc4cc3C2=O)[C@@H](O[C@H]2C[C@H](NC(=O)C(F)(F)F)[C@H](O)[C@H](C)O2)O1 : 2.88
CC(=O)C1Cc2c(O)c3c(c(O)c2CO1)C(=O)c1ccccc1C3=O (stereo not shown) : 75.9
CCOC(=O)C1CC2=C(CO1)C(=O)c1cc3ccccc3c(O)c1C2=O (stereo not shown) : 42.7

// next entry
The molecule CCOC(=O)[C@@H]1CC2=C(C(=O)c3c(c(O)c4ccccc4c3OC(C)=O)C2=O)[C@@H](O)O1 (mixture of isomers) , tested on tumor cell lines, showed GI50 of 70.8

---

Tested on: T47D
experiment_summary: Microculture tetrazolium assay
Format: cell-based
settings: Homo sapiens
Counter-ions that a name gives are not always drawn.
reported_metric: log10 IC50 (log10 of the value in µM)
Values are log10 of IC50 in µM.

Answered examples (3):
CO[C@H]1O[C@H](C(=O)CP(=O)(OC)OC)CC2=C1C(=O)c1cc3ccccc3c(O)c1C2=O (relative stereo) [BCH-1650] : 0.39
COc1cccc2c1C(=O)c1c(O)c3c(c(O)c1C2=O)C[C@@](O)(C(=O)CO)C[C@@H]3O[C@H]1C[C@H](N)[C@H](O)[C@H](C)O1 [ADR, reference compound] : -1.12
CC[C@H]1CC2=C(C(=O)c3cc4ccccc4c(O)c3C2=O)[C@H](O[C@H]2C[C@H](N)[C@H](O)[C@H](C)O2)O1 [BCH-1610, hydrochloride] : 0.13

GET /value?item= CC(=O)[C@H]1CC2=C(C(=O)c3cc4ccccc4c(O)c3C2=O)[C@H](O[C@H]2C[C@H](NC(=O)C(F)(F)F)[C@H](I)[C@H](C)O2)O1 [BCH-1618] &field=log10 IC50 returns 0.56

For this molecule ( CC(=O)C1Cc2c(O)c3c(c(O)c2C(OC2CCC(NC(=O)N(CCCl)N=O)CC2)O1)C(=O)c1ccccc1C3=O (stereo not drawn) [BCH-2116] ), measured log10 IC50 is 1.36

---

Tested on: MCF7
experiment_summary: Soft agar colony formation disk diffusion assay
Assay type: cell-based, human
settings: 100 μg/DISK
Each entry below carries its recorded zone of inhibition.
// units = Zone Units; emit number, no label

Would you please look over these solved cases?
COC(=O)[C@H]1CC2=C(C(=O)c3c(cc4ccccc4c3O)C2=O)[C@H](O[C@H]2C[C@H](NC(=O)C(F)(F)F)[C@H](O)[C@H](C)O2)O1 (mixture of isomers) [BCH-692] : 289.5
C=CC1CC2=C(C(=O)c3cc4ccccc4c(O)c3C2=O)C(OC)O1 (stereo not drawn) [BCH-712] : 54.5

Memo: CCOC(=O)C1Cc2c(c(OC)c3c(c2OC)C(=O)c2ccccc2C3=O)CS1 (stereo not drawn) [BCH-717] , reported zone of inhibition: 0

---

# key: entry, value: VLB/OV3
System: SKVLB
experiment_summary: Microculture tetrazolium assay
Format: cell-based
settings: IC50 ratio SKVLB/SKOV3
Structures can show the parent of a compound that is named as a salt.
Output: the number by itself.

Some compounds with known VLB/OV3 results, for comparison:
CC(=O)CC1CC2=C(C(=O)c3cc4ccccc4c(O)c3C2=O)C(O[C@H]2C[C@H](NC(=O)C(F)(F)F)[C@H](O)[C@H](C)O2)O1 (mixture of isomers) [BCH-2097] : 0.88
COCC1(COC)CC2=C(C(=O)c3cc4ccccc4c(O)c3C2=O)[C@H](O[C@H]2C[C@H](N)[C@H](O)[C@H](C)O2)O1 [BCH-1991, hydrochloride] : 3.77

In the following, a different compound is considered.
In plain terms, C=CC[C@H]1CC2=C(C(=O)c3cc4ccccc4c(O)c3C2=O)[C@H](O[C@H]2C[C@H](N)[C@H](O)[C@H](C)O2)O1 [BCH-2006, hydrochloride] has a documented VLB/OV3 of 4.23

---

Test system: SKVLB
experiment_summary: Microculture tetrazolium assay
Format: cell-based
settings: IC50 ratio SKVLB/SKOV3
Where VLB/OV3 equals or exceeds 2, the correct label is YES; where it does not, the label is NO.

Take a look at these entries with their results.
CC(=O)O[C@@H]1[C@H](C)O[C@@H](OC2OC(C(=O)CO)CC3=C2C(=O)c2cc4ccccc4c(O)c2C3=O)C[C@@H]1OC(C)=O (stereo partly shown) : YES
CCOC(=O)C1Cc2c(OCC)c3c(c(O)c2C(O[C@H]2C[C@H](NC(=O)C(F)(F)F)[C@H](O)[C@H](C)O2)O1)C(=O)c1ccccc1C3=O (stereo partly shown) : NO
CC(=O)[C@H]1CC2=C(C(=O)c3cc4ccccc4c(O)c3C2=O)[C@H](O[C@H]2O[C@H](CO)[C@@H](O)[C@H](O)[C@H]2NC(=O)N(CCCl)N=O)O1 : YES
CC(C)[C@H]1Cc2c(O)c3c(c(O)c2[C@H](O[C@H]2C[C@H](N4CCOCC4)[C@H](O)[C@H](C)O2)O1)C(=O)c1ccccc1C3=O : NO
CC(=O)OCC1([C@@H]2CC3=C(C(=O)c4c(cc5ccccc5c4OC(C)=O)C3=O)[C@@H](O[C@H]3C[C@H](NC(=O)C(F)(F)F)[C@H](O)[C@H](C)O3)O2)OCCCO1 : NO

Please indicate if the recorded VLB/OV3 for CC(=O)C1Cc2c(O)c3c(c(O)c2C(O[C@H]2C[C@H](N4CCOCC4)[C@H](O)[C@H](C)O2)O1)C(=O)c1ccccc1C3=O (stereo partly shown) [BCH-1193] meets or exceeds 2.
YES

Identify whether the reported VLB/OV3 of the following compound is 2 or greater: CC(=O)[C@@H]1Cc2c(O)c3c(c(O)c2[C@@H](O[C@@H]2O[C@@H](C)[C@@H](O)[C@@H](O)C2I)O1)C(=O)c1ccccc1C3=O (stereo partly shown)
YES

# check: VLB/OV3 of CC(=O)C1CC2=C(C(=O)c3cc4ccccc4c(O)c3C2=O)C(OC[C@H](O)CO)O1 (stereo partly shown) is greater than or equal to 2
NO

Please indicate if the recorded VLB/OV3 for C[C@@H]1O[C@@H](OC2OC(C#N)Cc3c(O)c4c(c(O)c32)C(=O)c2ccccc2C4=O)C[C@H](NC(=O)C(F)(F)F)[C@@H]1O (mixture of isomers) meets or exceeds 2.
YES

VLB/OV3 >= 2 for C[C@@H]1O[C@@H](O[C@H]2O[C@H](COc3ccccc3)Cc3c(O)c4c(c(O)c32)C(=O)c2ccccc2C4=O)C[C@H](N)[C@@H]1O (mixture of isomers) ?
NO

Confirm if VLB/OV3 reported for the compound C[C@@H]1O[C@@H](O[C@H]2O[C@H](S(=O)(=O)c3ccccc3)CC3=C2C(=O)c2cc4ccccc4c(O)c2C3=O)C[C@H](NC(=O)C(F)(F)F)[C@@H]1O is 2 or above.
YES

Tell me whether VLB/OV3 is at least 2 here: C=CC[C@@H]1Cc2c(O)c3c(c(O)c2[C@@H](O[C@H]2C[C@H](NC(=O)C(F)(F)F)[C@H](O)[C@H](C)O2)O1)C(=O)c1ccccc1C3=O
NO

---

Test system: MCF7/ADR
experiment_summary: Soft agar colony formation disk diffusion assay
Type: cell-based, human
settings: 100 μg/DISK
reported_metric: zone of inhibition (Zone Units)
Expressed in Zone Units, but write only the number.

COC(=O)[C@@H]1CC2=C(C(=O)c3c(cc4ccccc4c3O)C2=O)[C@@H](O[C@H]2C[C@H](NC(=O)C(F)(F)F)[C@H](O)[C@H](C)O2)O1 [BCH-691] : 213.5
COC(=O)[C@H]1CC2=C(C(=O)c3c(cc4ccccc4c3O)C2=O)[C@H](O[C@H]2C[C@H](NC(=O)C(F)(F)F)[C@H](O)[C@H](C)O2)O1 (mixture of isomers) [BCH-692] : 237.9
CCOC(=O)C1Cc2c(c(OC)c3c(c2OC)C(=O)c2ccccc2C3=O)CS1 (stereo not drawn) [BCH-717] : 0
CCOC(=O)[C@@H]1CC2=C(C(=O)c3cc4ccccc4c(OC(C)=O)c3C2=O)[C@@H](O)O1 (mixture of isomers) [BCH-660] : 109.8
CCOC(=O)C1Cc2c(OCC)c3c(c(O)c2C(O[C@H]2C[C@H](NC(=O)C(F)(F)F)[C@H](O)[C@H](C)O2)O1)C(=O)c1ccccc1C3=O (stereo partly drawn) [BCH-705] : 35.5

Readout zone of inhibition for C=CC1CC2=C(C(=O)c3cc4ccccc4c(O)c3C2=O)C(OC)O1 (stereo not drawn) [BCH-712] , test system MCF7/ADR, was 79.0

---

Tested on: SKVLB
experiment_summary: Microculture tetrazolium assay
Assay type: cell-based
settings: IC50 ratio SKVLB/SKOV3
Counter-ions that a name gives are not always drawn.
reported_metric: VLB/OV3

COCOCC(=O)C1CC2=C(CO1)C(=O)c1cc3ccccc3c(O)c1C2=O (stereo not drawn) : 0.68
CC(=O)C1CC2=C(C(=O)c3cc4ccccc4c(O)c3C2=O)C(OC[C@H]2COC(C)(C)O2)S1 (stereo partly drawn) : 1.71
CO[C@H]1S[C@H](CO)CC2=C1C(=O)c1cc3ccccc3c(O)c1C2=O (relative stereo) : 1.15
COC(=O)[C@H]1CC2=C(C(=O)c3c(c(OC)c4ccccc4c3O)C2=O)[C@H](O[C@H]2C[C@H](NC(=O)C(F)(F)F)[C@H](O)[C@H](C)O2)O1 (mixture of isomers) : 0.43

Per the record, CC(=O)[C@H]1Cc2c(O)c3c(c(O)c2[C@H](O[C@H]2C[C@H](N)[C@H](O)[C@H](C)O2)O1)C(=O)c1ccccc1C3=O [BCH-1195, hydrochloride] has VLB/OV3 of 4.99

Recorded result, COC(=O)[C@H]1CC2=C(C(=O)c3c(cc4ccccc4c3O)C2=O)[C@H](O[C@H]2C[C@H](NC(=O)C(F)(F)F)[C@H](O)[C@H](C)O2)O1 (mixture of isomers) , VLB/OV3: 0.62

Summary for this compound, CC[C@@H]1CC2=C(C(=O)c3cc4ccccc4c(O)c3C2=O)[C@@H](O)O1 (relative stereo) : VLB/OV3 is 2.33
